Test system: 966289-007-R4-J1-PDC complex spheroid viability;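 also: spheroids exposed to the agents for seven days before readout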
test-description: Anticancer human tumor 966289-007-R4-J1-PDC patient-derived pancreatic adenocarcinoma cell line growth inhibition [GQUAD]; active = viability on the fitted dose curve at most 10% of control; inactive = the rest
measurement-parameters: second compound 3.16 µM; first compound 0.1 µM
Pick from active, inactive when you respond.

Use these answered entries as a reference point.
compound	classification
COc1cccc2c1C(=O)c1c(O)c3c(c(O)c1C2=O)CC(O)(C(=O)CO)CC3OC1CC(N)C(O)C(C)O1 (stereo not given) + Cc1[nH]c2ccc(F)cc2c1-c1nc2c3cccnc3c3ncccc3c2[nH]1	inactive
O=C(c1cc(Cc2n[nH]c(=O)c3ccccc23)ccc1F)N1CCN(C(=O)C2CC2)CC1 + Cc1[nH]c2ccc(F)cc2c1-c1nc2c3cccnc3c3ncccc3c2[nH]1	inactive
COc1cc(C2c3cc4c(cc3C(OC3OC5COC(C)OC5C(O)C3O)C3COC(=O)C23)OCO4)cc(OC)c1O (stereo not given) + Cc1cnc(CNC(=O)c2c(=O)c3ccc(N4CCCN(C)CC4)nc3n3c2sc2ccccc23)cn1	active
COc1cccc2c1C(=O)c1c(O)c3c(c(O)c1C2=O)CC(O)(C(=O)CO)CC3OC1CC(N)C(O)C(C)O1 (stereo not given) + Cc1cnc(CNC(=O)c2c(=O)c3ccc(N4CCCN(C)CC4)nc3n3c2sc2ccccc23)cn1	active
COc1ncnc(C2CC2)c1-c1ncc2cnn(Cc3ccc(-c4nc(C(F)(F)F)cn4C(C)C)cc3)c2n1 + CN(C)c1ccc(Nc2c3ccc(NC(=O)CCN4CCCC4)cc3nc3cc(NC(=O)CCN4CCCC4)ccc23)cc1	inactive
COc1ncnc(C2CC2)c1-c1ncc2cnn(Cc3ccc(-c4nc(C(F)(F)F)cn4C(C)C)cc3)c2n1 + Cc1cnc(CNC(=O)c2c(=O)c3ccc(N4CCCN(C)CC4)nc3n3c2sc2ccccc23)cn1	active
Cc1cccc(N(C)C(=O)C2C(O)CCN2c2nc(C)cc(C(F)(F)F)c2C#N)c1 (stereo not given) + CN(C)c1ccc(Nc2c3ccc(NC(=O)CCN4CCCC4)cc3nc3cc(NC(=O)CCN4CCCC4)ccc23)cc1	inactive
CC(=O)O[C@H]1C(=O)[C@@]2(C)[C@H]([C@H](OC(=O)c3ccccc3)[C@]3(O)C[C@H](OC(=O)[C@H](O)[C@@H](NC(=O)c4ccccc4)c4ccccc4)C(C)=C1C3(C)C)[C@]1(OC(C)=O)CO[C@@H]1C[C@@H]2O + Cc1cnc(CNC(=O)c2c(=O)c3ccc(N4CCCN(C)CC4)nc3n3c2sc2ccccc23)cn1	active
C=CC(=O)N1CCN(c2nc(=O)n(-c3c(C)ccnc3C(C)C)c3nc(-c4c(O)cccc4F)c(F)cc23)C(C)C1 (stereo not given) + Cc1cnc(CNC(=O)c2c(=O)c3ccc(N4CCCN(C)CC4)nc3n3c2sc2ccccc23)cn1	active
CC1COCCN1c1cc(C2(S(C)(=N)=O)CC2)nc(-c2ccnc3[nH]ccc23)n1 (stereo not given) + CN(C)c1ccc(Nc2c3ccc(NC(=O)CCN4CCCC4)cc3nc3cc(NC(=O)CCN4CCCC4)ccc23)cc1	inactive

# fetch the recorded call for Nc1ccn(C2OC(CO)C(O)C2(F)F)c(=O)n1 (stereo not given) + CN(C)c1ccc(Nc2c3ccc(NC(=O)CCN4CCCC4)cc3nc3cc(NC(=O)CCN4CCCC4)ccc23)cc1 here
active

GET /call?item= O=c1[nH]cc(F)c(=O)[nH]1 + Cc1[nH]c2ccc(F)cc2c1-c1nc2c3cccnc3c3ncccc3c2[nH]1 returns the recorded outcome of this test.
inactive

Tell me the recorded outcome of this test for O=C(c1cc(Cc2n[nH]c(=O)c3ccccc23)ccc1F)N1CCN(C(=O)C2CC2)CC1 + Cc1cnc(CNC(=O)c2c(=O)c3ccc(N4CCCN(C)CC4)nc3n3c2sc2ccccc23)cn1 .
active
